Please provide measured IC50 for the entries that follow.
tested on: TGF-β-stimulated SMAD3 phosphorylation in BEAS-2B cells; assay: Cellular ALK5 potency assay, inhibition of TGF-β stimulated pSMAD3 formation in BEAS-2B cells; assay type: cell-based; settings: Homo sapiens, inhibition of TGF-β (10 ng/mL) stimulated pSMAD3 formation, 1 hour compound incubation, read-out: BEAS2B pIC50 (converted)

Each compound below has a recorded value; state its IC50.
1. Fc1cc(F)c(-c2n[nH]cc2-c2ccc3ncc(NCC4CCCNC4)cc3n2)cc1Cl (centres unmarked) [Compound 6-66]
2. CC(C)N1CCN(CCNc2cnc3ccc(-c4c[nH]nc4-c4cc(Cl)ccc4F)nc3c2)CC1 [Compound 1-2]
3. Fc1ccc(Cl)cc1-c1n[nH]cc1-c1ccc2ncc(-c3cnc4n3CCNC4)cc2n1 [Compound 1-107]
4. COC(=O)[C@H]1CN(c2cnc3ccc(-c4c[nH]nc4-c4cc(Cl)c(F)cc4F)nc3c2)CCN1 [Compound 6-27]
5. CC(C)NCCN1CCN(c2cnc3ccc(-c4c[nH]nc4-c4cc(Cl)ccc4F)nc3c2)CC1 [Compound 1-76]
6. COCc1cccc(-c2n[nH]cc2-c2ccc3ncc(N4CCC(N)C4)cc3n2)c1 (centres unmarked) [Compound 14-6]
7. Fc1cc(F)c(-c2n[nH]cc2-c2ccc3ncc(NC[C@H]4CCCCN4)cc3n2)cc1Cl [Compound 6-11]

Output:
200 to 1260 nM
≤ 20 nM
25.1 to 158 nM
25.1 to 158 nM
25.1 to 158 nM
25.1 to 158 nM
25.1 to 158 nM

Input: // IC50 lookup, key: COCC1CN(c2cnc3ccc(-c4c[nH]nc4-c4cc(Cl)ccc4F)nc3c2)CCN1C (racemic) [Compound 1-80]
Output: 25.1 to 158 nM

====

Please provide measured Ki for the entries that follow.
Molecular target: recombinant human ALK5 (TGF-βR1) protein (Homo sapiens)
Sequence (P36897 34-503): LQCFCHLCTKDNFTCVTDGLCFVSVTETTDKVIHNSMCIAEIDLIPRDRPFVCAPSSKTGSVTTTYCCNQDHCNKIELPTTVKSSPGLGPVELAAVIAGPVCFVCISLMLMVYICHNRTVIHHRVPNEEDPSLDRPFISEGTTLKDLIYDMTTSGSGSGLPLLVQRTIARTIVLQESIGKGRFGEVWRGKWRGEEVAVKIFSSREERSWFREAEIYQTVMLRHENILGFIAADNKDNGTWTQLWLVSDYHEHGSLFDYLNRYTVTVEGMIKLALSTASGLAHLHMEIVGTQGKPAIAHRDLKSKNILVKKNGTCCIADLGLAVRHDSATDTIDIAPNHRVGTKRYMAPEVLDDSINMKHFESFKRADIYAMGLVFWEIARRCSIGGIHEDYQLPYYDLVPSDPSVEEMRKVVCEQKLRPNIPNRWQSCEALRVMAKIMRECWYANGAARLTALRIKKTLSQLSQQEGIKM
Assay: Biochemical ALK5 (TGF-βR1) assay to measure pKi (LANCE Ultra ULight kinase assay)
Details: apparent pKi, converted from pIC50 using the Cheng-Prusoff equation
Protocol: Example 254: Biochemical ALK5 (TGF-βR1) Assay to Measure pKi The assays were performed in a 384-well plate (24 columns×16 wells/rows). […] For dose-response analyses, percent inhibition versus compound concentrations were plotted, and pIC50 values were determined from a 4-parameter robust fit model with GraphPad Prism V5 Software (GraphPad Software, Inc., La Jolla, Calif.). […]

Molecule	Ki
CC(C)N1CCN(c2cnc3ccc(-c4c[nH]nc4-c4cc(Cl)ccc4F)nc3c2)CC1 [Compound 1-43]	0.0398 to 0.316 nM

Each molecule below has a recorded value; state its Ki.
1. CN1CCN(C2CCN(c3cnc4ccc(-c5c[nH]nc5-c5cc(Cl)ccc5F)cc4c3)CC2)CC1 [Compound 16-4]
2. CC(C)N1CCN(CCNc2cnc3ccc(-c4c(-c5cc(Cl)ccc5F)nc5ccccn45)nc3c2)CC1 [Compound 3-1]

Output:
1. 0.398 to 3.16 nM
2. 0.0398 to 0.316 nM

====

Biological target: recombinant human ALK5 (TGF-βR1) protein (Homo sapiens)
Assay: Biochemical ALK5 (TGF-βR1) assay to measure pKi (LANCE Ultra ULight kinase assay)
Settings: apparent pKi, converted from pIC50 using the Cheng-Prusoff equation
Experimental: Example 254: Biochemical ALK5 (TGF-βR1) Assay to Measure pKi The assays were performed in a 384-well plate (24 columns×16 wells/rows). […] For dose-response analyses, percent inhibition versus compound concentrations were plotted, and pIC50 values were determined from a 4-parameter robust fit model with GraphPad Prism V5 Software (GraphPad Software, Inc., La Jolla, Calif.). […]
pKi: −log10 of the molar value.
Please provide measured pKi for the entries that follow.

In the examples that follow, each entry is paired with its recorded pKi.
Compound	pKi
Fc1ccc(-c2n[nH]cc2-c2ccc3ncc(C4=CCC(NCc5ccccc5)CC4)cc3n2)cc1F (stereo not shown) [Compound 8-26]	9.50 to 10.40
COCc1cccc(-c2n[nH]cc2-c2ccc3ncc(-c4cnn([C@H]5CCCC[C@H]5N)c4)cc3n2)c1 [Compound 14-18]	9.50 to 10.40
Fc1ccc(Cl)cc1-c1n[nH]cc1-c1ccc2ncc(N3CCn4nc(N5CCN(Cc6ccccc6)CC5)cc4C3)cc2n1 [Compound 1-47]	9.50 to 10.40
Fc1cc(F)c(-c2n[nH]cc2-c2ccc3ncc(-c4[nH]nc5c4CCNC5)cc3n2)cc1Cl [Compound 6-53]	9.50 to 10.40
O=C(O)CC1CNCCN1c1cnc2ccc(-c3nc[nH]c3-c3cc(Cl)ccc3F)nc2c1 (stereo not shown) [Compound 2-32]	7.50 to 8.40

Each compound below has a recorded value; state its pKi.
1. CNCCn1cc(-c2cnc3ccc(-c4c[nH]nc4-c4cc(Cl)ccc4F)nc3c2)cn1 [Compound 1-87]
2. Fc1ccc(Cl)cc1-c1[nH]cnc1-c1ccc2ncc(-c3cnc4n3CCNC4)cc2n1 [Compound 2-24]

Output:
1. ≥ 10.50
2. 9.50 to 10.40
